- target-entity: ADCK3 (human) (UniProt Q8NI60)
- Sequence (Q8NI60 whole entry, looked up): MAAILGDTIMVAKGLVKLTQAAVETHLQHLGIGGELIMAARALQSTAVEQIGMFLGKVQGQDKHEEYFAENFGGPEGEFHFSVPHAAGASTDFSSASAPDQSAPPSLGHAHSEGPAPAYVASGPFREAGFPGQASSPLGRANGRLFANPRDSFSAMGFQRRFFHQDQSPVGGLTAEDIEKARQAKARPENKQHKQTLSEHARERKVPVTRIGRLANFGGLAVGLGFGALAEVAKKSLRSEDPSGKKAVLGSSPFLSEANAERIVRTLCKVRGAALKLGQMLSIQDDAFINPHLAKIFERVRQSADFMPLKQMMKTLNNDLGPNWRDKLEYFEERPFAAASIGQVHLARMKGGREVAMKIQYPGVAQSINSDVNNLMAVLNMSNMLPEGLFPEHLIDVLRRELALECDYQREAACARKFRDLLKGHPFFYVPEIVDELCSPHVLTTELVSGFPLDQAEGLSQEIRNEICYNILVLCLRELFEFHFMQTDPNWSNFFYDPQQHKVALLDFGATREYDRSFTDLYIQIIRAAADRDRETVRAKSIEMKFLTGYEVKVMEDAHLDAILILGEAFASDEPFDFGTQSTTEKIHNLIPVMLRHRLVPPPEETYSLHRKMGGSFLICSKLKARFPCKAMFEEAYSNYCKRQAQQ
- test-summary: KINOMEscan competition binding
- conditions: compound 10.0 µM
Would you mind telling me the reported kinase still bound, per cent of control of each entry?
The answer should read as a number with its unit following.

Q: So what does the record say about kinase still bound, per cent of control for "COc1cc(N2CCC(O)CC2)ccc1Nc1ncc2c(n1)N1CCc3cccc(c31)C(=O)N2C" ?
Result: 78%

Q: So what does the record say about kinase still bound, per cent of control for "COc1cc(N2CCN(C)CC2)ccc1Nc1ncc2c(n1)Nc1ccccc1NC2=O" ?
Result: 100%

Q: So what does the record say about kinase still bound, per cent of control for "CN1CCN(c2ccc(C(=O)Nc3ncc4c(n3)N(C)c3ccccc3C(=O)N4C)cc2)CC1" ?
Result: 100%

Q: So what does the record say about kinase still bound, per cent of control for "COc1cc(N2CCN(C)CC2)ccc1Nc1ncc2c(n1)N(C)c1sccc1C(=O)N2C" ?
Result: 100%

Q: So what does the record say about kinase still bound, per cent of control for "CN1C(=O)c2ccccc2N(C)c2nc(NS(=O)(=O)c3ccc(N)cc3)ncc21" ?
Result: 99%

Each recorded value in this set is attributed to the kinase profiling compilation of Christmann-Franck et al. (2016).
